# target-of-assay: human recombinant HDAC6 (Homo sapiens)
# Sequence (Q9UBN7 whole entry): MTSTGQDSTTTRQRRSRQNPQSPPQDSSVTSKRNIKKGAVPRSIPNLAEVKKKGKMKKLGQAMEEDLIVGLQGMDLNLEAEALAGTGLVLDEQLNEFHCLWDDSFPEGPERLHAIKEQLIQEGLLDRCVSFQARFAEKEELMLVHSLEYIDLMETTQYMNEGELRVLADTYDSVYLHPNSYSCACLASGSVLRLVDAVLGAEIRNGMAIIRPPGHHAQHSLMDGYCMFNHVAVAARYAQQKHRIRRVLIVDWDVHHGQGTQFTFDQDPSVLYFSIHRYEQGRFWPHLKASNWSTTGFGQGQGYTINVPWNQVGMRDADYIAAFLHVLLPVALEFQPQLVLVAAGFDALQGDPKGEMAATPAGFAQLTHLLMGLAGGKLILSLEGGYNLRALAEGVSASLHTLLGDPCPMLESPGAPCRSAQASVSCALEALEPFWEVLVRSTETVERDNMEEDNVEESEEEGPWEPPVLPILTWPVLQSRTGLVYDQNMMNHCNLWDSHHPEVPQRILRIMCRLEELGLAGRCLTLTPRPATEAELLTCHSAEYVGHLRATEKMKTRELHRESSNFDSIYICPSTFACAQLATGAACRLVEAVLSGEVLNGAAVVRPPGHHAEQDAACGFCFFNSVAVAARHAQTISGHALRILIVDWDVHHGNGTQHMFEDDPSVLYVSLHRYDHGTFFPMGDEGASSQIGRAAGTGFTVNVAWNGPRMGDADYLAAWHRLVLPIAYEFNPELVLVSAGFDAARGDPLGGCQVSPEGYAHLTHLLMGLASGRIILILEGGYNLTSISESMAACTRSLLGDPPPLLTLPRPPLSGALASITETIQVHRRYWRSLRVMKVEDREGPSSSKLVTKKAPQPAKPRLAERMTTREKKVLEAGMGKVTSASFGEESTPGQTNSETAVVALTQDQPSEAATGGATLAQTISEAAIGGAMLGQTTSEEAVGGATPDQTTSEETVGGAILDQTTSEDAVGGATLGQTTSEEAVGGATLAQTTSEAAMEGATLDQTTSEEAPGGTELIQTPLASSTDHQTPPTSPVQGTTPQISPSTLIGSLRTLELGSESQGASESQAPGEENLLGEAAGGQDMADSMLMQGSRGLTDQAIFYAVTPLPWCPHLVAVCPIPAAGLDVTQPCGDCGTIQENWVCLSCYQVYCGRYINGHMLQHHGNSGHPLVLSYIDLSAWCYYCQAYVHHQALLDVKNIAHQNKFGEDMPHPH
# experiment-description: In vitro HDAC enzyme activity inhibition assay (HDAC6)
# cond: same protocol as the HDAC1 test, human recombinant HDAC6 (Calbiochem)
readout-label: IC50 (nM)

>>> reported("CCC(=O)N1CCC(S(=O)(=O)N(Cc2cn3ccc(-c4nnc(C(F)F)o4)cc3n2)c2ccccc2)CC1 [Compound 4222]")
218

A. O=S(=O)(C1CCN(c2ncccn2)CC1)N(Cc1cn2ccc(-c3nnc(C(F)F)o3)cc2n1)c1ccccc1 [Compound 4228]
B. O=S(=O)(N1CCN(c2ncccn2)CC1)N(Cc1cn2ccc(-c3nnc(C(F)F)o3)cc2n1)c1cccc(F)c1 [Compound 4315]
# input Two entries are listed, A and B . Which one carries the higher IC50? Please respond with the label that marks your chosen entry.
# output B

* * *

# target-of-assay: human recombinant HDAC6 (Homo sapiens)
# experiment-description: In vitro HDAC enzyme activity inhibition assay (HDAC6)
# cond: same protocol as the HDAC1 test, human recombinant HDAC6 (Calbiochem)
pIC50: −log10 of the molar value.
readout-label: pIC50

>>> reported("O=S(=O)(N1CCN(C2CCOCC2)CC1)N(Cc1cn2ccc(-c3nnc(C(F)F)o3)cc2n1)c1cccc(F)c1")
7.22
>>> reported("O=S(=O)(C1CCN(c2ccccn2)CC1)N(Cc1cn2ccc(-c3nnc(C(F)F)o3)cc2n1)c1cccc(F)c1")
6.93
>>> reported("CCN1CCC(S(=O)(=O)N(Cc2cn3ccc(-c4nnc(C(F)F)o4)cc3n2)c2cccc(F)c2)CC1")
7.22
>>> reported("CN(C)C(=O)N1CCC(S(=O)(=O)N(Cc2cn3ccc(-c4nnc(C(F)F)o4)cc3n2)c2ccccc2)CC1")
6.68
>>> reported("CN1CCN(S(=O)(=O)N(Cc2cn3ccc(-c4nnc(C(F)F)o4)cc3n2)c2ccccc2)CC1")
7.10

I. O=C(C1CCC1)N1CCN(S(=O)(=O)N(Cc2cn3ccc(-c4nnc(C(F)F)o4)cc3n2)c2cccc(F)c2)CC1
II. O=C(C1COC1)N1CCN(S(=O)(=O)N(Cc2cn3ccc(-c4nnc(C(F)F)o4)cc3n2)c2ccccc2)CC1
III. O=S(=O)(N1CCN(C2CC3(COC3)C2)CC1)N(Cc1cn2ccc(-c3nnc(C(F)F)o3)cc2n1)c1cccc(F)c1
# input Put the entries in order of pIC50, starting with the largest number. Sort and list the labels as requested.
# output III, I, II
(III: 7.21, I: 6.94, II: 6.71)

* * *

# target-of-assay: human recombinant HDAC6 (Homo sapiens)
# Construct: purchased Calbiochem Inc. 382180
# experiment-description: In vitro HDAC enzyme activity inhibition assay (HDAC6)
# Format: biochemical
# cond: HDAC6 over HDAC1
readout-label: HDAC6 selectivity (fold)

>>> reported("CC(C)(C)OC(=O)N1CCC(S(=O)(=O)N(Cc2cn3ccc(-c4nnc(C(F)(F)F)o4)cc3n2)c2cccc(F)c2)CC1 [Compound 6893]")
16
>>> reported("O=S(=O)(C1CCN(c2ccccn2)CC1)N(Cc1cn2ccc(-c3nnc(C(F)F)o3)cc2n1)c1cccc(F)c1 [Compound 4254]")
430
>>> reported("O=C(C1COC1)N1CCN(S(=O)(=O)N(Cc2cn3ccc(-c4nnc(C(F)F)o4)cc3n2)c2cccc(F)c2)CC1 [Compound 4310]")
681
>>> reported("CC(C)N1CCC(S(=O)(=O)N(Cc2cn3ccc(-c4nnc(C(F)F)o4)cc3n2)c2ccccc2)CC1 [Compound 4215]")
275
>>> reported("CN(C)C(=O)N1CCN(S(=O)(=O)N(Cc2cn3ccc(-c4nnc(C(F)F)o4)cc3n2)c2ccccc2)CC1 [Compound 4273]")
413

I. O=C(C1CCC1)N1CCN(S(=O)(=O)N(Cc2cn3ccc(-c4nnc(C(F)F)o4)cc3n2)c2cccc(F)c2)CC1 [Compound 4309]
II. O=S(=O)(C1CCN(C2COC2)CC1)N(Cc1cn2ccc(-c3nnc(C(F)F)o3)cc2n1)c1cccc(F)c1 [Compound 4241]
# input Two entries are listed, I and II . Which one carries the higher HDAC6 selectivity (fold)? Please respond with the label that marks your chosen entry.
# output II
(II: 715 fold, I: 437 fold)

Reference source: patent US12466827B2
